- EXPERIMENT_DESCRIPTION: Toxicity liver stage against HepG2, at 10uM
- Type: cell-based
- Parameters: test concentration 10 uM, cell line HepG2-A16-CD81EGFP
- COND: human, HepG2-A16-CD81EGFP cells; read-out: INHIBITION
Quick reference: cytotoxicity at 10 µM of the listed items.
Give the value in % but do not write % after it.

Example entries and their recorded answers appear below.
>>> reported_value("O=C1N(c2ccsc2)CCC12CCCN(Cc1cccnc1)C2 (stereo unspecified)")
-128
>>> reported_value("CCc1nn(C)c(Cl)c1CN1CCCC(c2cc(O)nc(C)n2)C1 (stereo unspecified)")
-2.37
>>> reported_value("CCOc1ccccc1C(=O)Nc1cccc(C[S+](C)[O-])c1C (stereo unspecified)")
-4.35
>>> reported_value("COc1ccc(CNC(=O)Nc2cccnc2OC)cc1O")
-26.3

"Cc1ccc(S(=O)(=O)NCc2[nH]ncc2Br)cc1F" yielded cytotoxicity at 10 µM of 12.6

"Cn1c(N2CC[C@H](O)C2)nc2cc(C(N)=O)ccc21" yielded cytotoxicity at 10 µM of 5.83

----------
- EXPERIMENT_DESCRIPTION: Toxicity liver stage against HepG2, at 10uM
- Format: cell-based
- Design: test concentration 10 uM, cell line HepG2-A16-CD81EGFP
- COND: human, HepG2-A16-CD81EGFP cells; read-out: INHIBITION
MEASURED_PROPERTY: cytotoxicity at 10 µM
Param answer (str): number followed by unit.

CCC(NC(=O)NC1CCN(S(C)(=O)=O)CC1)c1cccs1 (stereo not given) yielded cytotoxicity at 10 µM of -11.6%

"CN(C)CCNC(=O)c1ccn(-c2ccc3ccccn23)n1" yielded cytotoxicity at 10 µM of -0.0395%

CC1CN(Cc2ccccc2)CCCN1CCCS(C)(=O)=O (stereo not given) yielded cytotoxicity at 10 µM of 5.27%

"CC1CCN(C(=O)C2CCN(c3ccc(Cl)cc3C#N)CC2)CC1" yielded cytotoxicity at 10 µM of 11.8%

"Cc1ccc(C(=O)N2CCN(CCCSCC#N)CC2)o1" yielded cytotoxicity at 10 µM of -11.1%

CC(C)CC(CO)NC(=O)NCc1csc(N(C)C)n1 (stereo not given) yielded cytotoxicity at 10 µM of 6.07%

"NC(=O)c1cnc(NCC(=O)NCc2ccccc2)c(Cl)c1" yielded cytotoxicity at 10 µM of 3.89%

O=C(NCC1CC2(CO1)CN(c1ncccn1)C2)C1CCC1 (stereo not given) yielded cytotoxicity at 10 µM of -107%

"N#Cc1ccc(CN2CCN(c3ccncc3Cl)CC2=O)cc1" yielded cytotoxicity at 10 µM of 4.64%

----------
- EXPERIMENT_DESCRIPTION: Toxicity liver stage against HepG2, at 10uM
- Format: cell-based
- Design: test concentration 10 uM, cell line HepG2-A16-CD81EGFP
- COND: human, HepG2-A16-CD81EGFP cells; read-out: INHIBITION
MEASURED_PROPERTY: cytotoxicity at 10 µM (%)
Give the value in % but do not write % after it.

Example entries and their recorded answers appear below.
>>> reported_value("Cc1cc(=O)n2nc(Oc3ccc(F)c(F)c3)sc2n1")
-15.8
>>> reported_value("CC(c1nc(C2CC2)no1)N(C)Cc1cccc(F)c1 (stereo unspecified)")
-5.43
>>> reported_value("Cc1occc1C(=O)N1CCc2c(COCC3CC3)cncc2C1")
-0.799
>>> reported_value("CN(C)c1ccc(CNC(=O)NCCc2cn3ccccc3n2)cn1")
-3.06
>>> reported_value("Cc1cc(NCCN2CCNC2=O)nc2cc3c(cc12)CCC3")
2.97

Next, consider the following compound.
"CN(C)C(=O)CN(C)C(=O)c1csc(Br)c1" yielded cytotoxicity at 10 µM of 12.3
